Attribution: BindingDB's records for doi:10.1021/jm970166j

target: 5-hydroxytryptamine receptor 1A (Mus musculus, UniProt Q64264); test: The compound's binding affinity against 5-hydroxytryptamine 1A receptor
Sequence (Q64264 whole entry): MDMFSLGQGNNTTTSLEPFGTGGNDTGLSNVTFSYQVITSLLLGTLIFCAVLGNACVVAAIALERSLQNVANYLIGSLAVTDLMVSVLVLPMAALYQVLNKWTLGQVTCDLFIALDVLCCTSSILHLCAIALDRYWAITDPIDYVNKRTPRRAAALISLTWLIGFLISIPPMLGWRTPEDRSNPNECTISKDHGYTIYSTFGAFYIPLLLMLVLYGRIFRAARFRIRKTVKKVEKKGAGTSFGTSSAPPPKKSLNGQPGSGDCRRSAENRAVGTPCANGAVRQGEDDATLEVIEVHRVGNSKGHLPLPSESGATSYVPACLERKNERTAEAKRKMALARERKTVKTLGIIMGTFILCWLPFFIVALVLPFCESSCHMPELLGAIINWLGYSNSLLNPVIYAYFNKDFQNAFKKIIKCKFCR
measurement_name: pKi
The response must contain the number and no unit.

QUERY: Returns the measured pKi for the input compound. Input: Cc1nn(C)c2ncc(C(=O)N(C)C)c(NCCCN3CCN(c4ccccc4OCC(F)(F)F)CC3)c12
RESULT: 7.5

QUERY: GET /values?readout=pKi&item= COc1ccccc1N1CCN(CCCNc2ncccc2C(=O)N(C)C)CC1
RESULT: 7.6

QUERY: Need pKi of COc1cc(F)ccc1N1CCN(CCCNc2c(C(=O)N(C)C)cnc3c2c(C)nn3C)CC1 , thanks.
RESULT: 6.5

Continuing:
QUERY: Given the compound COc1cc(F)ccc1N1CCN(CCCNc2ncccc2C(=O)N(C)C)CC1 , what is its reported pKi?
RESULT: 6.7

---

target: D(2) dopamine receptor (Homo sapiens); test: The compound's binding affinity against Dopamine receptor D2
Sequence (P14416 whole entry): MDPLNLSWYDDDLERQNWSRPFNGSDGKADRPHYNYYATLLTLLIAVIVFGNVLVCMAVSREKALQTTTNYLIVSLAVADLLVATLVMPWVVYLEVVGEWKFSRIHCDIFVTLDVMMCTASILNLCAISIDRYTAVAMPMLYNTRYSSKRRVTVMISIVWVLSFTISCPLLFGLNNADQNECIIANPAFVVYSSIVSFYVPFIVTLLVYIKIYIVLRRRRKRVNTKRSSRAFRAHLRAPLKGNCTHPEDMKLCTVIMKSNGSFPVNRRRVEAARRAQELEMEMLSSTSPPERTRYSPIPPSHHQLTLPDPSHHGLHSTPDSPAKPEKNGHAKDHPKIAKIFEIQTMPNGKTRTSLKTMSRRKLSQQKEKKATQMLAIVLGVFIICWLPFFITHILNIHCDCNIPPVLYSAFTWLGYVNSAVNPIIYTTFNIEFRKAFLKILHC
Known pKi of a selection of compounds
Please reply with the value in numeric form only.

QUERY: Param item = COc1cc(F)ccc1N1CCN(CCCNc2c(C(=O)N(C)C)cnc3c2c(C)nn3C)CC1 ; retrieve measured pKi.
RESULT: 6.4

QUERY: # pKi lookup, item COc1ccccc1N1CCN(CCCNc2ncccc2C(=O)N(C)C)CC1
RESULT: 7.4

QUERY: Fill in the blank: the reported pKi of Cc1nn(C)c2ncc(C(=O)N(C)C)c(NCCCN3CCN(c4ccccc4OCC(F)(F)F)CC3)c12 is ____.
RESULT: 8.1

New cases:
QUERY: # lookup: pKi of COc1cc(F)ccc1N1CCN(CCCNc2ncccc2C(=O)N(C)C)CC1
RESULT: 6.7
